HIS4 meiotic recombination assay sensitivity score overview
System: S. cerevisiae NKY1551 his4x/his4B, sporulating;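 note: active if sensitivity score above 5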
Test: HIS4 meiotic recombination assay sensitivity score (z-score vs DMSO controls); higher = stronger inhibition of sporulation/recombination, active = hit call of the paper
Conditions: stock concentration (mM, diluted 1:100): 10
No unit in the answer, please; the number alone is enough.

As a guide, the following entries are already answered.
| compound | target-system | numeric-value |
| --- | --- | --- |
| COc1ccc(CCN)cc1OC | S. cerevisiae NKY1551 his4x/his4B, sporulating | -1.74 |
| O=C(O)C(Cl)Cl | S. cerevisiae NKY1551 his4x/his4B, sporulating | -0.62 |
| COc1cc2c(cc1OC)[C@@]13CCN4CC5=CCO[C@H]6CC(=O)N2[C@H]1[C@H]6[C@H]5C[C@H]43 | S. cerevisiae NKY1551 his4x/his4B, sporulating | 0.05 |
| C[C@]12CC[C@H](O)CC1=CC[C@@H]1[C@@H]2CC[C@]2(C)C(=O)CC[C@@H]12 [Dehydroepiandrosterone] | S. cerevisiae NKY1551 his4x/his4B, sporulating | 3.07 |
| Oc1ccc2c3c1O[C@H]1c4[nH]c5ccccc5c4C[C@@]4(O)[C@@H](C2)N(CC2CC2)CC[C@]314 | S. cerevisiae NKY1551 his4x/his4B, sporulating | -0.51 |

Now take the following compound into account.
(Q) Item: `FC(F)(F)c1cccc(N2CCNCC2)c1` Test system: S. cerevisiae NKY1551 his4x/his4B, sporulating Read-out: HIS4 meiotic recombination assay sensitivity score Value: ?;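 note: active if sensitivity score above 5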
(A) 8.84

----------
System: S. cerevisiae NKY1551 his4x/his4B, sporulating;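 note: active if sensitivity score above 5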
Experiment: HIS4 meiotic recombination assay sensitivity score (z-score vs DMSO controls); higher = stronger inhibition of sporulation/recombination, active = hit call of the paper
Conditions: stock concentration (mM, diluted 1:100): 10
HIS4 meiotic recombination assay sensitivity score overview
No unit in the answer, please; the number alone is enough.

As a guide, the following entries are already answered.
| compound | numeric-value |
| --- | --- |
| COc1ccc2[nH]cc(CCN)c2c1 | -1.35 |
| C[C@]12CCC(=O)C=C1CC[C@@H]1[C@@H]2CC[C@@]2(C)[C@H]1CC[C@]2(C)O | 2.7 |
| C#CCN(C)[C@H](C)Cc1ccccc1 | 0.06 |

(Q) What value of HIS4 meiotic recombination assay sensitivity score has been reported for the following compound? `c1ccc2c3c([nH]c2c1)CNCC3`
(A) -3.38

(Q) What value of HIS4 meiotic recombination assay sensitivity score has been reported for the following compound? `CCCCC/C=C\C/C=C\C/C=C\C/C=C\CCCC(=O)Nc1ccc(O)cc1`
(A) -0.8

----------
Test system: S. cerevisiae SK1 pCDA2-eGFP (USY613), sporulating;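 note: active if sensitivity score above 5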
Experiment: CDA2-GFP sporulation assay sensitivity score (z-score vs DMSO controls); higher = stronger inhibition of sporulation, active = hit call of the paper
Details: stock concentration (mM, diluted 1:100): 10
CDA2-GFP sporulation assay sensitivity score overview
No unit in the answer, please; the number alone is enough.

(Q) Item: COC(=O)N1CCN(C(=O)Cc2ccc(Cl)c(Cl)c2)C(CN2CCCC2)C1 (stereo not given) Test system: S. cerevisiae SK1 pCDA2-eGFP (USY613), sporulating Read-out: CDA2-GFP sporulation assay sensitivity score Value: ?;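 note: active if sensitivity score above 5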
(A) 3.34

----------
Test system: S. cerevisiae BY4741 (wild-type), vegetative growth in YPD
Experiment: growth sensitivity score (doubling time z-score vs DMSO controls); higher = slower growth, strongly negative scores also mark growth inhibition (complete suppression), active = hit call of the paper
Details: stock concentration (mM, diluted 1:100): 10.1
growth sensitivity score overview
No unit in the answer, please; the number alone is enough.

| compound | growth sensitivity score |
| --- | --- |
| CC[C@@H](C(N)=O)N1CCCC1=O [Levetiracetam] | -1.26 |

(Q) What value of growth sensitivity score has been reported for the following compound? `COc1ccc2[nH]cc(C3=CCNCC3)c2c1`
(A) -0.36

(Q) What value of growth sensitivity score has been reported for the following compound? C[C@]12CC[C@H](O)CC1=CC[C@@H]1[C@@H]2CC[C@@]2(C)[C@H]1CC[C@]2(C)O [Methylandrostenediol]
(A) 0.35

(Q) What value of growth sensitivity score has been reported for the following compound? C[N+]1(CCC(C(N)=O)(c2ccccc2)c2ccccc2)CCCCC1 [Fenpiverinium bromide]
(A) -1.06

(Q) What value of growth sensitivity score has been reported for the following compound? NC(=O)OCCCc1ccccc1 [Phenprobamate]
(A) 0.48

----------
Test system: S. cerevisiae SK1 pCDA2-eGFP (USY613), sporulating;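 note: active if sensitivity score above 5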
Test: CDA2-GFP sporulation assay sensitivity score (z-score vs DMSO controls); higher = stronger inhibition of sporulation, active = hit call of the paper
Settings: stock concentration (mM, diluted 1:100): 10.1
Counter-ions that a name gives are not always drawn.
Label rule, in plain words: CDA2-GFP sporulation assay sensitivity score of 0.8 and up is 1.0, under 0.8 is 0.0.

| molecule | label-class |
| --- | --- |
| C=C(C)CN1CC[C@]23c4c5ccc(O)c4O[C@H]2c2[nH]c4ccccc4c2C[C@@]3(O)C1C5 | 1.0 |
| CC(NC(C)(C)C)C(=O)c1cccc(Cl)c1 (stereo not given) [Amfebutamone hydrochloride] | 1.0 |
| NC(=O)OCCCc1ccccc1 [Phenprobamate] | 0.0 |

Alright, here's another molecule for you.
(Q) Say whether CCOC(=O)c1cncn1[C@H](C)c1ccccc1 [Etomidate] shows CDA2-GFP sporulation assay sensitivity score of 0.8 or more.
(A) 1.0

----------
System: S. cerevisiae AD1-9 (efflux-pump deficient), vegetative growth in YPD
Assay: growth sensitivity score (doubling time z-score vs DMSO controls); higher = slower growth, strongly negative scores also mark growth inhibition (complete suppression), active = hit call of the paper
Details: stock concentration (mM, diluted 1:100): 10
Structures can show the parent of a compound that is named as a salt.
Answer with one of the outcomes label 1 = active, label 0 = inactive

Consider the worked cases shown below.
| compound | label-class |
| --- | --- |
| COc1ccc(CCN)cc1OC | label 0 |
| C[C@]12CC[C@H]3[C@@H](CCC4=CC(=O)CC[C@@H]43)[C@@H]1CC[C@@H]2O | label 1 |
| CCN(C(C)=O)c1cccc(-c2ccnc3c(C#N)cnn23)c1 | label 0 |
| CCN(CC)CCOC(=O)C(O)(c1ccccc1)c1ccccc1 [Benactyzine hydrochloride] | label 0 |
| NC1=NC(=O)C(c2ccccc2)O1 (centres undefined) | label 0 |

(Q) Each compound tested received a call. Report the one for `CC[C@]1(O)CC[C@H]2[C@@H]3CCC4=CCCC[C@@H]4[C@H]3CC[C@@]21C` .
(A) label 1

(Q) Each compound tested received a call. Report the one for `C#CCN(C)[C@H](C)Cc1ccccc1` .
(A) label 0

(Q) Each compound tested received a call. Report the one for OC1CCCCC1N1CCC(c2ccccc2)CC1 (centres undefined) [Vesamicol hydrochloride] .
(A) label 0

----------
Tested on: S. cerevisiae AD1-9 (efflux-pump deficient), vegetative growth in YPD
Assay: growth sensitivity score (doubling time z-score vs DMSO controls); higher = slower growth, strongly negative scores also mark growth inhibition (complete suppression), active = hit call of the paper
Details: stock concentration (mM, diluted 1:100): 10
Answer with one of the outcomes active, inactive

| compound | label-class |
| --- | --- |
| N=C(NCc1ccc(Cl)cc1)SCCCc1c[nH]cn1 [Clobenpropit] | inactive |
| CNC(=O)Oc1ccc2c(c1)[C@]1(C)CCN(C)[C@@H]1N2C [Physostigmine] | inactive |
| CN1C(=O)CN=C(c2ccccc2)c2cc([N+](=O)[O-])ccc21 [Nimetazepam] | inactive |
| C[C@]12CC[C@H]3[C@@H](CCC4=CC(=O)CC[C@@]43C)[C@@H]1CC[C@@H]2O [Testosterone] | active |

Alright, here's another compound for you.
(Q) Each compound tested received a call. Report the one for c1ccc(Cn2ccnc2)cc1 [1-Benzylimidazole] .
(A) inactive

----------
Test system: S. cerevisiae SK1 pCDA2-eGFP (USY613), sporulating;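 note: active if sensitivity score above 5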
Test: CDA2-GFP sporulation assay sensitivity score (z-score vs DMSO controls); higher = stronger inhibition of sporulation, active = hit call of the paper
Conditions: stock concentration (mM, diluted 1:100): 10
Label rule, in plain words: CDA2-GFP sporulation assay sensitivity score of -0.4 and up is Fulfilled, under -0.4 is Not fulfilled.

Consider the worked cases shown below.
| compound | label-class |
| --- | --- |
| NC1=NC(=O)C(c2ccccc2)O1 (stereo not drawn) | Fulfilled |
| CNC(=O)Oc1ccc2c(c1)[C@]1(C)CCN(C)[C@@H]1N2C | Fulfilled |
| COc1ccc2[nH]cc(CCN)c2c1 | Fulfilled |

(Q) Say whether `CC[C@]1(O)CC[C@H]2[C@@H]3CCC4=CCCC[C@@H]4[C@H]3CC[C@@]21C` shows CDA2-GFP sporulation assay sensitivity score of -0.4 or more.
(A) Fulfilled

Data provenance: the supplement of paper PMC3414501
